Assign self-cleavage to each entry below.
B1: LINE1-mini (parent)
chain: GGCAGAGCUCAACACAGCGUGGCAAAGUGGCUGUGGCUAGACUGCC

- Variants of: B1
- PROTOCOL DESCRIPTION: self-cleavage, relative activity (ratio to wild type); higher = more cleavage; in vitro, sequencing; the parent is a self-cleaving ribozyme
Note: the reply should be a number with no unit written.

Fill in: self-cleavage of A14G G30A is ___
0.28

Fill in: self-cleavage of U32G G35U is ___
0.06

Fill in: self-cleavage of G35C C45A is ___
0.06

Fill in: self-cleavage of U9A C45U is ___
0.28

Fill in: self-cleavage of A6C U34A is ___
0.05

Fill in: self-cleavage of G17C A26G is ___
0.07

Fill in: self-cleavage of G17C C37A is ___
0.07

Fill in: self-cleavage of A6C C10A is ___
0.11

Fill in: self-cleavage of A24U G44A is ___
0.44

Fill in: self-cleavage of C3U A26C is ___
0.35

Fill in: self-cleavage of C23U C42U is ___
0.91

Fill in: self-cleavage of A16G G19C is ___
0.5

Fill in: self-cleavage of C10G G27C is ___
0.09

Fill in: self-cleavage of A11C U34G is ___
0.04

Fill in: self-cleavage of A12C U38A is ___
0.01

Fill in: self-cleavage of G29U G36C is ___
0.1

Fill in: self-cleavage of G40A G44A is ___
0.19

Fill in: self-cleavage of G22A U34C is ___
0.87

Fill in: self-cleavage of C3A C8U is ___
0.69

Fill in: self-cleavage of G1U C18A is ___
0.16

Fill in: self-cleavage of G2U G7A is ___
0.07

Fill in: self-cleavage of A25U A39U is ___
0.86
